TESTED_SYSTEM: Mitogen-activated protein kinase 1 (Homo sapiens, UniProt P28482)
Sequence (P28482 whole entry): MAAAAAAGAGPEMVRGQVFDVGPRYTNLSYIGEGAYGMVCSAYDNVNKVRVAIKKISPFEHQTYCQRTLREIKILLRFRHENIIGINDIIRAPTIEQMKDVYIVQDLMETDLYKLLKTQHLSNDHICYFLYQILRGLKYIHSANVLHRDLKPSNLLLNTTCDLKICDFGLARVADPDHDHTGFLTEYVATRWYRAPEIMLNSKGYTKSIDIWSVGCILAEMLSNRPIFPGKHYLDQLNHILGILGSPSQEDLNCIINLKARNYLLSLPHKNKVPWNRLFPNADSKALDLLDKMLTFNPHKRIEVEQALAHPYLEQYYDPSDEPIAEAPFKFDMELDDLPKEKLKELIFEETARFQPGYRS
ASSAY_NAME: Inhibition of human recombinant ERK2 by radiometric kinase assay
pIC50: −log10 of the molar value.
ENDPOINT: pIC50

Qu. Return reported pIC50; argument: CN1CCN(c2ccc(Nc3ncc4nc(Nc5ccccc5)n(C5CCCC5)c4n3)cc2)CC1
Ans. < 5.00

====

TESTED_SYSTEM: Epidermal growth factor receptor (Homo sapiens, UniProt P00533, L858R/T790M)
Sequence (P00533 25-1210 T790M/L858R limits assumed): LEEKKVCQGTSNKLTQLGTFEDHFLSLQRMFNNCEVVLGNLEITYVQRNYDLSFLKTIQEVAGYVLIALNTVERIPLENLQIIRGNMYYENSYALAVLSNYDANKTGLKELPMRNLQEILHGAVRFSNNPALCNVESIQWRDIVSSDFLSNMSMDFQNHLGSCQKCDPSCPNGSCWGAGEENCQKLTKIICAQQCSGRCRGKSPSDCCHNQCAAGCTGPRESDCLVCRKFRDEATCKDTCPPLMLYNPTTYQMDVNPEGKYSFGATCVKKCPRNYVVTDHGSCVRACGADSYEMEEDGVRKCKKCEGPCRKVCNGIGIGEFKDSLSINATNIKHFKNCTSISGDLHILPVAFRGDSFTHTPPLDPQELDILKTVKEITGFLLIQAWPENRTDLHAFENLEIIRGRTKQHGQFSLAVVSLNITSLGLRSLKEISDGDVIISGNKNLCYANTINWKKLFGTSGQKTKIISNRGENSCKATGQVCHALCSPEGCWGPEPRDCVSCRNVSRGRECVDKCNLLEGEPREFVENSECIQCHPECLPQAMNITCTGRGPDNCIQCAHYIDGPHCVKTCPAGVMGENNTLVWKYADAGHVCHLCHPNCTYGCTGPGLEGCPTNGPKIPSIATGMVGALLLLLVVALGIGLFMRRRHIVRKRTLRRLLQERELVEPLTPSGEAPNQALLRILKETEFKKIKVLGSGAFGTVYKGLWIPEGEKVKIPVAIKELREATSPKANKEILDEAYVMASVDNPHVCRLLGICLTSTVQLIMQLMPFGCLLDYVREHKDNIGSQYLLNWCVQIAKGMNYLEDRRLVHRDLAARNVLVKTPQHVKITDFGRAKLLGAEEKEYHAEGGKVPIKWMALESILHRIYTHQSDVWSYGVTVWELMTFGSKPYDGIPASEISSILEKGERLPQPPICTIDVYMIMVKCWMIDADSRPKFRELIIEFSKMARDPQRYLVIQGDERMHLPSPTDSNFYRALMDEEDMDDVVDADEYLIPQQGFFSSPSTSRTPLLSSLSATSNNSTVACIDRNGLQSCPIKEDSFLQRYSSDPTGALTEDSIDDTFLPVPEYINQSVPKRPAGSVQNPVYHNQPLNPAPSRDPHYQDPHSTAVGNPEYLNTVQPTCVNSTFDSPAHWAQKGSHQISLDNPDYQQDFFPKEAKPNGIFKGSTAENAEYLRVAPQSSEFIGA
ASSAY_NAME: Inhibition of EGFR L858R/T790M mutant
ENDPOINT: IC50 (nM)
Numeric only. Scale: nM

Qu. Return reported IC50; argument: CN1CCN(c2ccc(Nc3ncc4nc(Nc5ccccc5)[nH]c4n3)cc2)CC1
Ans. 978
